Cited source: ChEMBL document CHEMBL3425480

Experiment: Cytotoxicity against human HeLa cells
Format: cell-based
CC50 overview

compound | CC50
CC(=O)NCCNc1cc(Cl)nn2c(-c3ccc(F)c(C=O)c3)c(C)nc12 | > 50 µM
COc1ccc(-c2c(C)nc3c(NCCNC(C)=O)ccnn23)cc1OC | > 50 µM
COc1ccc(-c2c(C)nc3c(N)cc(Cl)nn23)cc1OC | 1.75 µM
COc1ccc(-c2c(C)nc3c(NCCN4CCOCC4)ccnn23)cc1OC | > 50 µM
C[C@@]1(O)[C@H](O)[C@@H](CO)O[C@H]1n1ccc2c(N)ncnc21 [BETA-2'-C-METHYL-7-DEAZA-ADENOSINE] | > 50 µM
COc1ccc(-c2c(C)nn3c(NCCNS(C)(=O)=O)cc(C)nc23)cc1OC | > 50 µM
COc1ccc(-c2c(C)nn3c(NCCOC(C)=O)cc(C)nc23)cc1OC | > 50 µM
COc1ccc(-c2c(C)nn3c(NCCNC(C)=O)cc(C)nc23)cc1OC | > 50 µM
COc1ccc(-c2c(C)nc3c(NCCNC(C)=O)cc(Cl)nn23)cc1OC | > 50 µM
COc1ccc(-c2c(C)nn3c(NCCNC(=O)C(C)C)cc(C)nc23)cc1OC | > 50 µM
